Reference source: PubChem BioAssay AID504333

# Target entity: Bromodomain adjacent to zinc finger domain protein 2B (Homo sapiens)
# Measurement notes: qHTS Assay for Inhibitors of BAZ2B; note: nearly all actives have a fitted effect of over 60% in size
# Conditions used: AlphaScreen BAZ2B-H3K14Ac peptide displacement; series mostly up to 114 µM
About 16,000 (4.4%) of roughly 360,000 compounds were called active. Inconclusive results (about 9%) are left out. Calls come from the whole dose curve; as a rule, active = well fitted inhibition curve with a large enough effect; inconclusive = small, poorly fitted or top-dose-only effect; inactive = no such curve, though single readings can be large or run the other way. The sample holds actives, similar compounds and a random draw of the others, so the mix is not that of the screen.
Outcomes: active, inactive

In [3]: df
Out[3]:
                                    compound                             target_entity     group
 0                 O=C(O)c1ccc(-n2cccc2)cc1O  Bromodomain adjacent to zinc finger domain protein 2B (Homo sapiens)    active
 1  CCC(=O)N1N=C(c2ccc(OC)cc2)CC1c1cn(-c2ccccc2)nc1-c1cccs1 (centres undefined)  Bromodomain adjacent to zinc finger domain protein 2B (Homo sapiens)  inactive
 2  COC(=O)c1cc(S(=O)(=O)N2CCN(c3cc(Cl)ccc3C)CC2)c[nH]1  Bromodomain adjacent to zinc finger domain protein 2B (Homo sapiens)  inactive
 3  O=C(CSc1nc2ccccc2c(=O)[nH]1)Nc1nc(-c2ccc(Br)cc2)cs1  Bromodomain adjacent to zinc finger domain protein 2B (Homo sapiens)    active
 4  Cc1nn(-c2nc(-c3ccccc3)cc(C(F)(F)F)n2)c(C)c1Cl  Bromodomain adjacent to zinc finger domain protein 2B (Homo sapiens)  inactive
 5  Cc1ccc2oc3c(c(=O)c2c1)C(c1ccc(O)cc1)N(Cc1ccc2c(c1)OCO2)C3=O (centres undefined)  Bromodomain adjacent to zinc finger domain protein 2B (Homo sapiens)  inactive
 6  CCCCN(CC)CCCNC(=O)Cn1ncc2c([nH]c3ccc(C)cc32)c1=O  Bromodomain adjacent to zinc finger domain protein 2B (Homo sapiens)  inactive
 7  Cc1ccc(CCNC(=O)c2ccc(CS(=O)(=O)Cc3cccc(C)c3)o2)cc1  Bromodomain adjacent to zinc finger domain protein 2B (Homo sapiens)  inactive
 8  Cc1ccc(NC(=O)c2cccnc2C(=O)Nc2ccc(C)cc2)cc1  Bromodomain adjacent to zinc finger domain protein 2B (Homo sapiens)  inactive
 9  CCOc1cccc(NC(=O)c2ccc(F)c(S(=O)(=O)N(CC)c3cccc(C)c3)c2)c1  Bromodomain adjacent to zinc finger domain protein 2B (Homo sapiens)  inactive
10  CCOC(=O)c1[nH]c2c(c1-c1ccccc1)C(=O)CC(c1ccc(Cl)cc1)C2 (centres undefined)  Bromodomain adjacent to zinc finger domain protein 2B (Homo sapiens)  inactive
11  O=C(O)c1ccc2c(c1)C(=O)N(NC(=O)c1ccc(O)cc1)C2=O  Bromodomain adjacent to zinc finger domain protein 2B (Homo sapiens)  inactive
12  Cc1cccc(C(=O)N2CCc3cc(CNC(=O)Cc4ccc(F)cc4)ccc32)c1  Bromodomain adjacent to zinc finger domain protein 2B (Homo sapiens)  inactive
13  O=C(NCCCO)C(=O)Nc1c2c(nn1-c1ccc(F)cc1)CSC2  Bromodomain adjacent to zinc finger domain protein 2B (Homo sapiens)  inactive
14  CC(=O)NCc1ccc(-c2csc(NC(=O)CCCc3nc4ccccc4c(=O)[nH]3)n2)cc1  Bromodomain adjacent to zinc finger domain protein 2B (Homo sapiens)  inactive
15  CCOC(=O)C1C(c2ccc(Cl)cc2)NC(=S)NC1(O)C(F)(F)F (centres undefined)  Bromodomain adjacent to zinc finger domain protein 2B (Homo sapiens)  inactive
16  COc1cc(NC(=O)c2cc3ccc4cccnc4c3[nH]2)cc(OC)c1OC  Bromodomain adjacent to zinc finger domain protein 2B (Homo sapiens)  inactive
17  Cc1ccc(CCNC(=O)Cn2c(-c3cccs3)cc3cc(F)ccc32)cc1  Bromodomain adjacent to zinc finger domain protein 2B (Homo sapiens)  inactive
18  CC(=O)N1C(=O)/C(=C2\SC(=S)N(NC(=O)c3ccc(O)cc3)C2=O)c2ccccc21  Bromodomain adjacent to zinc finger domain protein 2B (Homo sapiens)    active
19  Cc1c(C)n(Cc2ccc(Cl)cc2)c2ccc(C(=O)NCCc3ccc(S(N)(=O)=O)cc3)cc12  Bromodomain adjacent to zinc finger domain protein 2B (Homo sapiens)  inactive
20  CSc1nc(-c2ccccc2Cl)nc2c1Cc1c(CO)cnc(C)c1O2  Bromodomain adjacent to zinc finger domain protein 2B (Homo sapiens)  inactive
21  COc1ccc(CNc2nc(-c3ccc(Cl)cc3)cc(C(F)(F)F)n2)cc1  Bromodomain adjacent to zinc finger domain protein 2B (Homo sapiens)  inactive
22  CCOC(=O)c1ccccc1NC(=O)CSc1nc2ccccc2c(=O)[nH]1  Bromodomain adjacent to zinc finger domain protein 2B (Homo sapiens)  inactive
23  COc1ccc(CNC(=O)CSc2n[nH]c(-c3ccc(F)cc3)n2)cc1  Bromodomain adjacent to zinc finger domain protein 2B (Homo sapiens)  inactive
24  O=C(c1ccc(CS(=O)(=O)c2ccccc2)o1)N1CCN(c2ccccc2)CC1  Bromodomain adjacent to zinc finger domain protein 2B (Homo sapiens)    active
25  Cc1c(Cl)cccc1NC(=O)CCS(=O)(=O)c1ccc2c(c1)oc(=O)n2C  Bromodomain adjacent to zinc finger domain protein 2B (Homo sapiens)  inactive
26  COc1ccc2c(c1)N(C)/C(=C1/SC(=S)N(NC(C)=O)C1=O)S2  Bromodomain adjacent to zinc finger domain protein 2B (Homo sapiens)  inactive
27  Cc1cccc(-n2ncc(C(=O)N3CCN(c4ccc(Cl)cc4)CC3)c2C2CCN(C(=O)OC(C)(C)C)CC2)c1  Bromodomain adjacent to zinc finger domain protein 2B (Homo sapiens)  inactive
28  CCOC(=O)C1Sc2[nH]c(=O)sc2C(c2ccc(Cl)cc2)C1C(=O)OCC (centres undefined)  Bromodomain adjacent to zinc finger domain protein 2B (Homo sapiens)    active
29    CCOc1cccc2sc(N3CCN(C(=O)C4CC4)CC3)nc12  Bromodomain adjacent to zinc finger domain protein 2B (Homo sapiens)  inactive
30  Cc1ccc(C(=O)CC2(O)C(=O)N(CCc3ccccc3)c3ccc(Br)cc32)cc1 (centres undefined)  Bromodomain adjacent to zinc finger domain protein 2B (Homo sapiens)  inactive
31         O=C(Nc1ccc(C(=O)O)c(O)c1)c1ccccc1  Bromodomain adjacent to zinc finger domain protein 2B (Homo sapiens)  inactive
32  CCOC(=O)c1c(C)[nH]c(C)c1S(=O)(=O)N(C)CC(=O)N1CCN(c2ccccc2)CC1  Bromodomain adjacent to zinc finger domain protein 2B (Homo sapiens)  inactive
33  COc1ccc2c(c1)C=C(C(=O)NCc1cc(Br)ccc1OC)CO2  Bromodomain adjacent to zinc finger domain protein 2B (Homo sapiens)  inactive
34  Cn1c(=O)c(=O)n(C)c2cc(NC(=O)c3ccccc3Br)ccc21  Bromodomain adjacent to zinc finger domain protein 2B (Homo sapiens)  inactive
35  O=C(Nc1ccc(-n2ccnc2P(=O)(O)c2ccccc2)cc1)c1ccccc1Br  Bromodomain adjacent to zinc finger domain protein 2B (Homo sapiens)    active
36  COc1ccc(Cl)cc1S(=O)(=O)N1CCC(c2ccncc2)CC1  Bromodomain adjacent to zinc finger domain protein 2B (Homo sapiens)  inactive
37       C[n+]1ccc(/C=C/c2c[nH]c3ccccc23)cc1  Bromodomain adjacent to zinc finger domain protein 2B (Homo sapiens)    active
38  CCOC(=O)c1c(-c2ccccc2)oc2ccc(OCC(N)=O)cc12  Bromodomain adjacent to zinc finger domain protein 2B (Homo sapiens)  inactive
